Each recorded value in this set is attributed to ChEMBL document CHEMBL4811318.

Target: Tyrosine-protein phosphatase non-receptor type 2 (Homo sapiens, UniProt P17706)
Sequence (P17706 whole entry, the tested form may be a part): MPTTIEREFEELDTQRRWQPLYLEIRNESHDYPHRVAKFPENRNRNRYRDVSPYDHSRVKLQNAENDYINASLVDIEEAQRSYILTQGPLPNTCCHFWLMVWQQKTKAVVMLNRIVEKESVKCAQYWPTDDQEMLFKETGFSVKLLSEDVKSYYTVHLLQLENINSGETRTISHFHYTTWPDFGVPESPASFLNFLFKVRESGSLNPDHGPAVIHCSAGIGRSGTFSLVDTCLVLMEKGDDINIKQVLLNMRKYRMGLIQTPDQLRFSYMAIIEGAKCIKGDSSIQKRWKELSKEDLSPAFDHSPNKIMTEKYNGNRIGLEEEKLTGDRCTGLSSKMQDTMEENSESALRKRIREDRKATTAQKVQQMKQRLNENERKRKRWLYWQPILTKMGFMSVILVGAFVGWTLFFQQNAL
Assay: Inhibition of recombinant human TC-PTP (2 to 315 residues) expressed in Escherichia coli using pNPP as substrate
measure name: IC50

Form: Entry = CC1Nc2cc(Cl)c(Cl)cc2-n2cccc21 (stereo not drawn) | System = Tyrosine-protein phosphatase non-receptor type 2 (Homo sapiens, UniProt P17706) | IC50 = ____ > 5 µM

Form: Entry = CC1Nc2ccc(Cl)cc2-n2cccc21 (stereo not drawn) | System = Tyrosine-protein phosphatase non-receptor type 2 (Homo sapiens, UniProt P17706) | IC50 = ____ > 5 µM

Form: Entry = Cc1c2cccn2c2ccc(C(F)(F)F)cc2[n+]1C.[I-] | System = Tyrosine-protein phosphatase non-receptor type 2 (Homo sapiens, UniProt P17706) | IC50 = ____ 0.41 µM

Form: Entry = CC1c2cccn2-c2ccccc2N1C (stereo not drawn) | System = Tyrosine-protein phosphatase non-receptor type 2 (Homo sapiens, UniProt P17706) | IC50 = ____ 0.5 µM

Form: Entry = Cc1nc2cc(Cl)c(Cl)cc2n2cccc12 | System = Tyrosine-protein phosphatase non-receptor type 2 (Homo sapiens, UniProt P17706) | IC50 = ____ > 25 µM

Form: Entry = Cc1nc2ccccc2n2cccc12 | System = Tyrosine-protein phosphatase non-receptor type 2 (Homo sapiens, UniProt P17706) | IC50 = ____ 3.95 µM

Form: Entry = Cc1c2cccn2c2cc(Cl)ccc2[n+]1C.[I-] | System = Tyrosine-protein phosphatase non-receptor type 2 (Homo sapiens, UniProt P17706) | IC50 = ____ > 5 µM

Form: Entry = Cc1nc2ccc(Cl)cc2n2cccc12 | System = Tyrosine-protein phosphatase non-receptor type 2 (Homo sapiens, UniProt P17706) | IC50 = ____ > 25 µM

* * *

Molecular target: UniProt:P18031
Sequence (P18031 whole entry): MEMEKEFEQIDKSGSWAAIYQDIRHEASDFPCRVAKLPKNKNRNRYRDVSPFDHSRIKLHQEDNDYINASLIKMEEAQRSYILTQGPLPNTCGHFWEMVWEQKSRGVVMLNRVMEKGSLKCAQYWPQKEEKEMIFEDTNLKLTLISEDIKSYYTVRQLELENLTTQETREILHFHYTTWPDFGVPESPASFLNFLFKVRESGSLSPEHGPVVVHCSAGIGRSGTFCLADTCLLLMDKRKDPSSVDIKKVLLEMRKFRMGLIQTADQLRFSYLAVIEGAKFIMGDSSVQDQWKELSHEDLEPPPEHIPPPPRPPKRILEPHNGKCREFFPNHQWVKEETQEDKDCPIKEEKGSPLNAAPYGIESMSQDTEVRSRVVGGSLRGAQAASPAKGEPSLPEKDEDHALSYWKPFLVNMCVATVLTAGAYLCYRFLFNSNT
Experiment: Inhibition of recombinant human PTP1B (1 to 322 residues) expressed in Escherichia coli using pNPP as substrate
pIC50: −log10 of the molar value.
measure name: pIC50

P. Cc1c2cccn2c2cc(Cl)ccc2[n+]1C.[I-]
Q. COc1ccc2c(c1)NC(C)c1cccn1-2 (stereo not given)
Higher pIC50 between P and Q ? Please identify the chosen entry by its label. P

P. CC1c2cccn2-c2ccccc2N1C (stereo not given)
Q. CCCC[n+]1c(C)c2cccn2c2ccccc21.[I-]
Higher pIC50 between P and Q ? Please identify the chosen entry by its label. P
(P: 6.29, Q: 5.72)

* * *

Biological target: Tyrosine-protein phosphatase non-receptor type 1 (Homo sapiens, UniProt P18031)
Test: Inhibition of PTP1B (unknown origin)
measure name: IC50 (nM)

1. C=C(C)[C@@H]1CC[C@]2(C)CC[C@]3(C)[C@H](CC[C@@H]4[C@@]5(C)CC[C@H](O)C(C)(C)[C@@H]5CC[C@]43C)[C@@H]12
2. CC1(C)CC[C@]2(C(=O)O)CC[C@@H]3C(=CC[C@H]4[C@H]3CC[C@@H]3[C@@H]4CC[C@H](O[C@@H]4O[C@H](CO)[C@@H](O)[C@H](O)[C@H]4O)C3(C)C)[C@@H]2C1
Hi there, can you help? I need to know whether 1 or 2 has lower measured IC50. Please identify the chosen entry by its label. 1

* * *

Biological target: UniProt P18031
Assay: Inhibition of recombinant human PTP1B (1 to 322 residues) expressed in Escherichia coli at 1 uM using IR5 (1142 to 1153 residues) as substrate incubated for 30 mins by spectrophotometry analysis relative to control
measure name: inhibition (%)

Worked examples, 6 molecules total:
molecule: CCCC[n+]1c(C)c2cccn2c2ccccc21.[I-]
measurement: 22

molecule: CC1Nc2ccc(Cl)cc2-n2cccc21 (stereo not given)
measurement: 56

molecule: Cc1c2cccn2c2ccc(C(F)(F)F)cc2[n+]1C.[I-]
measurement: 22

molecule: Cc1ccc2c(c1)[n+](C)c(C)c1cccn12.[I-]
measurement: 22

molecule: COc1ccc2c(c1)NC(C)c1cccn1-2 (stereo not given)
measurement: 56

molecule: CC1Nc2ccccc2-n2cccc21 (stereo not given)
measurement: 56

A. Cc1ccc2c(c1)NC(C)c1cccn1-2 (stereo not given)
B. Cc1c2cccn2c2ccccc2[n+]1C.[I-]
Hi there, can you help? I need to know whether A or B has lower measured inhibition. Please identify the chosen entry by its label. B
(B: 22%, A: 56%)

1. Cc1cc2c(cc1C)[n+](C)c(C)c1cccn12.[I-]
2. CC1Nc2cc(C(F)(F)F)ccc2-n2cccc21 (stereo not given)
Higher inhibition between 1 and 2 ? Please identify the chosen entry by its label. 2
(2: 56%, 1: 22%)

P. COc1ccc2c(c1)[n+](C)c(C)c1cccn12.[I-]
Q. CC1Nc2cc(Cl)c(Cl)cc2-n2cccc21 (stereo not given)
Hi there, can you help? I need to know whether P or Q has lower measured inhibition. Please identify the chosen entry by its label. P
(P: 22%, Q: 56%)

I. Cc1c2cccn2c2cc(Cl)ccc2[n+]1C.[I-]
II. CC1c2cccn2-c2ccccc2N1C (stereo not given)
Higher inhibition between I and II ? Please identify the chosen entry by its label. II

* * *

Biological target: Tyrosine-protein phosphatase non-receptor type 1 (Homo sapiens)
Test: Inhibition of recombinant human PTP1B (1 to 322 residues) expressed in Escherichia coli using pNPP as substrate
pIC50: −log10 of the molar value.
measure name: pIC50

Worked examples, 2 compounds total:
compound: Cc1c2cccn2c2ccc(C(F)(F)F)cc2[n+]1C.[I-]
assayed target: Tyrosine-protein phosphatase non-receptor type 1 (Homo sapiens)
pIC50: 6.24
--
compound: CC1Nc2ccc(Cl)cc2-n2cccc21 (configuration not stated)
assayed target: Tyrosine-protein phosphatase non-receptor type 1 (Homo sapiens)
pIC50: 6.35

1. CC1Nc2cc(Cl)c(Cl)cc2-n2cccc21 (configuration not stated)
2. Cc1nc2cc(Cl)c(Cl)cc2n2cccc12
3. Cc1c2cccn2c2ccccc2[n+]1C.[I-]
I would appreciate it if you could sort these 3 compounds by pIC50, starting from the smallest number. Use the labels to give the ranking in the order requested. 1, 2, 3

* * *

Organism: Homo sapiens
Experiment: Selectivity index, ratio of IC50 for recombinant human TC-PTP (2 to 315 residues) to IC50 for recombinant human PTP1B (1 to 322 residues) expressed in Escherichia coli
measure name: Ratio IC50

Worked examples, 7 compounds total:
compound: Cc1c2cccn2c2ccc(C(F)(F)F)cc2[n+]1C.[I-]
measurement: 0.71
//
compound: CC1Nc2cc(Cl)c(Cl)cc2-n2cccc21 (stereo not drawn)
measurement: > 5.26
//
compound: Cc1nc2ccc(Cl)cc2n2cccc12
measurement: > 41
//
compound: Cc1c2cccn2c2cc(Cl)ccc2[n+]1C.[I-]
measurement: > 6.02
//
compound: Cc1nc2ccccc2n2cccc12
measurement: 4
//
compound: CC1c2cccn2-c2ccccc2N1C (stereo not drawn)
measurement: 0.98
//
compound: Cc1nc2cc(Cl)c(Cl)cc2n2cccc12
measurement: > 43

If you can, please state the reported Ratio IC50 value of CC1Nc2ccc(Cl)cc2-n2cccc21 (stereo not drawn) . > 11.1

* * *

We begin with a simple list: items and their reported IC50.
Molecular target: Tyrosine-protein phosphatase non-receptor type 1 (Homo sapiens, UniProt P18031)
Test: Inhibition of recombinant human PTP1B (1 to 322 residues) expressed in Escherichia coli using pNPP as substrate

Worked examples, 5 compounds total:
compound: CC1Nc2ccccc2-n2cccc21 (stereo unspecified)
assayed target: Tyrosine-protein phosphatase non-receptor type 1 (Homo sapiens, UniProt P18031)
IC50: 0.41 µM

compound: Cc1nc2ccc(Cl)cc2n2cccc12
assayed target: Tyrosine-protein phosphatase non-receptor type 1 (Homo sapiens, UniProt P18031)
IC50: 0.6 µM

compound: Cc1cc2nc(C)c3cccn3c2cc1C
assayed target: Tyrosine-protein phosphatase non-receptor type 1 (Homo sapiens, UniProt P18031)
IC50: > 10 µM

compound: COc1ccc2c(c1)[n+](C)c(C)c1cccn12.[I-]
assayed target: Tyrosine-protein phosphatase non-receptor type 1 (Homo sapiens, UniProt P18031)
IC50: > 10 µM

compound: COc1ccc2c(c1)nc(C)c1cccn12
assayed target: Tyrosine-protein phosphatase non-receptor type 1 (Homo sapiens, UniProt P18031)
IC50: > 10 µM

Consider the record given below.
If you can, please state the reported IC50 value of Cc1nc2cc(C(F)(F)F)ccc2n2cccc12 . > 10 µM
